Where do the numbers come from? From ChEMBL document CHEMBL1139579.

Target Of Assay: Melanocortin receptor 4 (Homo sapiens)
Sequence (P32245 whole entry): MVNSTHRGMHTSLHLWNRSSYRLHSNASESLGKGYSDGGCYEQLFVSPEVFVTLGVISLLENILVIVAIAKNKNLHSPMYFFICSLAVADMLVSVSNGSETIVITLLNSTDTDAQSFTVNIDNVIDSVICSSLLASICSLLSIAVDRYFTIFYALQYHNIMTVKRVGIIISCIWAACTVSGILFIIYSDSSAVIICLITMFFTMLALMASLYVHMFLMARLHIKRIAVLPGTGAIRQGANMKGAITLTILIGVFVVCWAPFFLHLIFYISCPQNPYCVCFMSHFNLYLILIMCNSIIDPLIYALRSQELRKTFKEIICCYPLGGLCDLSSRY
Measurement Protocol: Inhibition of [125I]NDP-MSH (radioligand) binding to the hMC4R stably expressed in HEK293 cells
Type: cell-based
Recorded Endpoint: pKi
Answers are plain numbers, as −log10 of the molar value.

Examples with their reported pKi follow.
[
  {
    "Sample Smiles": "NCCC(=O)N[C@H](Cc1ccc(Cl)cc1Cl)C(=O)N1CCN(C2(CNCc3ccc(C(F)(F)F)cc3)CCCCC2)CC1",
    "Recorded Endpoint": "pKi",
    "Observed Measurement": 7.35
  },
  {
    "Sample Smiles": "NCCC(=O)N[C@H](Cc1ccc(Cl)cc1Cl)C(=O)N1CCN(C2(CNCc3ccc(OC(F)(F)F)cc3)CCCCC2)CC1",
    "Recorded Endpoint": "pKi",
    "Observed Measurement": 7.66
  }
]

Record pKi for all entries; do not skip any.
1. COc1ccc(CC(=O)NCC2(N3CCN(C(=O)[C@@H](Cc4ccc(Cl)cc4Cl)NC(=O)CCN)CC3)CCCCC2)cc1
2. NCCC(=O)N[C@H](Cc1ccc(Cl)cc1Cl)C(=O)N1CCN(C2(CNC(=O)c3ccco3)CCCCC2)CC1

1: 8.38; 2: 6.59

Record pKi for all entries; do not skip any.
1. NCCC(=O)N[C@H](Cc1ccc(Cl)cc1Cl)C(=O)N1CCN(C2(CNC(=O)c3ccc(OC(F)(F)F)cc3)CCCCC2)CC1
2. COc1cccc(CC(=O)NCC2(N3CCN(C(=O)[C@@H](Cc4ccc(Cl)cc4Cl)NC(=O)CCN)CC3)CCCCC2)c1

1: 6.40; 2: 8.12

###

Target Of Assay: Melanocortin receptor 4 (Homo sapiens)
Measurement Protocol: Inhibition of [125I]-AgRP(83132) (radioligand) binding to the hMC4R stably expressed in HEK293 cells
Format: cell-based
Task for the reader: assign each of the following compounds its reported Ki.
Answers are plain numbers, in nM.

[
  {
    "Sample Smiles": "NCCC(=O)N[C@H](Cc1ccc(Cl)cc1Cl)C(=O)N1CCN(C2(CNCc3ccccc3F)CCCCC2)CC1",
    "Observed Measurement": 13
  }
]

--- query ---
Which value of Ki has been reported for COc1ccc(CC(=O)NCC2(N3CCN(C(=O)[C@@H](Cc4ccc(Cl)cc4Cl)NC(=O)CCN)CC3)CCCCC2)cc1 in the records?
2.8

###

Target Of Assay: UniProt:P32245
Measurement Protocol: Inhibition of [125I]NDP-MSH (radioligand) binding to the hMC4R stably expressed in HEK293 cells
Type: cell-based
Just so you know, the groups by Ki go like this: lower bin = under 20 nM, middle bin = from 20 nM up to 200 nM, upper bin = 200 nM and over

[
  {
    "Sample Smiles": "NCCC(=O)N[C@H](Cc1ccc(Cl)cc1Cl)C(=O)N1CCN(C2(CN)CCCCC2)CC1",
    "Group Label": "upper bin"
  }
]

Determine which band this compound sits in: COc1ccc(C(=O)NCC2(N3CCN(C(=O)[C@@H](Cc4ccc(Cl)cc4Cl)NC(=O)CCN)CC3)CCCCC2)cc1
upper bin

And NCCC(=O)N[C@H](Cc1ccc(Cl)cc1Cl)C(=O)N1CCN(C2(CNCc3ccccc3)CCCCC2)CC1 ?
lower bin

And NCCC(=O)N[C@H](Cc1ccc(Cl)cc1Cl)C(=O)N1CCN(C2(CNC(=O)c3ccc([N+](=O)[O-])cc3)CCCCC2)CC1 ?
middle bin

And NCCC(=O)N[C@H](Cc1ccc(Cl)cc1Cl)C(=O)N1CCN(C2(CNCc3ccccn3)CCCCC2)CC1 ?
middle bin

And NCCC(=O)N[C@H](Cc1ccc(Cl)cc1Cl)C(=O)N1CCN(C2(CNC(=O)Cc3ccc(F)cc3)CCCCC2)CC1 ?
middle bin

And NCCC(=O)N[C@H](Cc1ccc(Cl)cc1Cl)C(=O)N1CCN(C2(CNC(=O)c3cccs3)CCCCC2)CC1 ?
upper bin

And CC(C)(C)CCNCC1(N2CCN(C(=O)[C@@H](Cc3ccc(Cl)cc3Cl)NC(=O)CCN)CC2)CCCCC1 ?
upper bin

And COc1ccc(CC(=O)NCC2(N3CCN(C(=O)[C@@H](Cc4ccc(Cl)cc4Cl)NC(=O)CCN)CC3)CCCCC2)cc1OC ?
lower bin

And NCCC(=O)N[C@H](Cc1ccc(Cl)cc1Cl)C(=O)N1CCN(C2(CNC(=O)Cc3ccccc3)CCCCC2)CC1 ?
lower bin

And NCCC(=O)N[C@H](Cc1ccc(Cl)cc1Cl)C(=O)N1CCN(C2(CNC(=O)c3ccncc3)CCCCC2)CC1 ?
middle bin
